experiment: Transdermal delivery of melatonin: plasma level of melatonin after applying composition to skin of a subject; conditions: human, plasma, topical, 3 mg, Plasma level of melatonin, Tyrosine isopropyl ester 269.50 mM, 0.30 mL applied to skin, 1 hr after transdermal administration
reportedMetric: concentration at 1 hr (ng/mL)
Quick note: give the figure in ng/mL, leave out the unit.

Inquiry: What value of measured concentration at 1 hr is listed for COc1ccc2[nH]cc(CCNC(C)=O)c2c1 ?
Reply text: 2.1

* * *

test: Transdermal delivery of melatonin: plasma level of melatonin after applying composition to skin of a subject; conditions: human, plasma, topical, 3 mg, Plasma level of melatonin, Tryptophan ethyl ester hydrochloride 260.47 mM, 0.3 mL applied to skin, 2 hr after transdermal administration
reportedMetric: concentration at 2 h
Kindly report the value followed by its unit.

Inquiry: What value of measured concentration at 2 h is listed for COc1ccc2[nH]cc(CCNC(C)=O)c2c1 ?
Reply text: 2.2 ng/mL

* * *

assay: Transdermal delivery of melatonin: plasma level of melatonin after applying composition to skin of a subject; details: human, plasma, topical, 3 mg, Plasma level of melatonin, Tryptophan isopropyl ester hydrochloride 247.52 mM, 0.3 mL applied to skin, 8 hr after transdermal administration
reportedMetric: concentration at 8 h (ng/mL)
Quick note: give the figure in ng/mL, leave out the unit.

Inquiry: What value of measured concentration at 8 h is listed for COc1ccc2[nH]cc(CCNC(C)=O)c2c1 ?
Reply text: 2.5

* * *

assay: Transdermal delivery of melatonin: plasma level of melatonin after applying composition to skin of a subject; settings: human, plasma, topical, Plasma level of melatonin, salt of tyrosine isopropyl ester, A− = AcO^−, 245.0 mM, 0.30 mL applied, 2 hr after transdermal administration
reportedMetric: concentration at 2 h (ng/mL)
Quick note: give the figure in ng/mL, leave out the unit.

Inquiry: What value of measured concentration at 2 h is listed for COc1ccc2[nH]cc(CCNC(C)=O)c2c1 ?
Reply text: 2

* * *

test: Transdermal delivery of melatonin: plasma level of melatonin after applying composition to skin of a subject; conditions: human, plasma, topical, 3 mg, Plasma level of melatonin, Phenylalanine isopropyl ester hydrochloride 287.21 mM, 0.60 mL applied to skin, 2 hr after transdermal administration
reportedMetric: concentration at 2 hr (ng/mL)
Quick note: give the figure in ng/mL, leave out the unit.

Inquiry: What value of measured concentration at 2 hr is listed for COc1ccc2[nH]cc(CCNC(C)=O)c2c1 ?
Reply text: 1.7

* * *

experiment: Transdermal delivery of melatonin: plasma level of melatonin after applying composition to skin of a subject; settings: human, plasma, topical, 3 mg, Plasma level of melatonin, Tyrosine propyl ester 269.5 mM, 0.30 mL applied to skin, 4 hr after transdermal administration
reportedMetric: concentration at 4 hr (ng/mL)
Quick note: give the figure in ng/mL, leave out the unit.

Inquiry: What value of measured concentration at 4 hr is listed for COc1ccc2[nH]cc(CCNC(C)=O)c2c1 [Melatonin] ?
Reply text: 2.6

* * *

experiment: Transdermal delivery of melatonin: plasma level of melatonin after applying composition to skin of a subject; conditions: human, plasma, topical, 3 mg, Plasma level of melatonin, Table 20 control, A− N/A, helper esters 0 mM, 2.0 mL applied, 2 hr after transdermal administration
reportedMetric: concentration at 2 h (ng/mL)
Quick note: give the figure in ng/mL, leave out the unit.

Inquiry: What value of measured concentration at 2 h is listed for COc1ccc2[nH]cc(CCNC(C)=O)c2c1 ?
Reply text: 0.1
